Data origin, for the record: ChEMBL document CHEMBL2346507

# experiment summary: Volume of distribution at steady state in cynomolgus monkey at […], iv
# Format: ADME, organism-based, Macaca fascicularis
# Set-up: dose 0.25 mg/kg, route intravenous
# assay context: in vivo, read-out: Vdss
readout kind: Vd (L/kg)
Just the number in L/kg, nothing appended.

Report Vd for Cc1cc(C(=O)Nc2cc(Oc3ccc4nc(NC(=O)C5CC5)cn4n3)ccc2C)n(C)n1 [TAK-593] please.
1.03

---

A collection of compounds and their measured solubility thermodynamic at 18 h
# experiment summary: Thermodynamic solubility of the compound in Japanese pharmacopoeia disintegration solution 2 containing bile acid at pH 6.8 after 18 hrs by HPLC analysis
# Type: physicochemical
# assay context: read-out: Therm_solubility
Just the number in µg/mL, nothing appended.

Report solubility thermodynamic at 18 h for `Cc1cc(C(=O)Nc2cccc(Oc3ccc4nc(NC(=O)C5CC5)cn4n3)c2)n(C)n1` please.
3.7

Report solubility thermodynamic at 18 h for `Cc1cc(C(=O)Nc2cc(Oc3ccc4nc(NC(=O)C5CC5)cn4n3)ccc2F)n(C)n1` please.
14

Alright, here's another compound for you.
Report solubility thermodynamic at 18 h for Cc1cc(C(=O)Nc2cc(Oc3ccc4nc(NC(=O)C5CC5)cn4n3)ccc2C)n(C)n1 [TAK-593] please.
38
